- ASSAYED SYSTEM: T1, mouse 129 SIRP-α (mouse (129 strain), UniProt P97797 32-150)
- T1 construct: also called m129
- T1 chain: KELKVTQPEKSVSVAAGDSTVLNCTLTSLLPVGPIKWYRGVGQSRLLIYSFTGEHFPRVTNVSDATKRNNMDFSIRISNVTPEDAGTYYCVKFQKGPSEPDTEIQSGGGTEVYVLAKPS
- EXPERIMENT DESCRIPTION: SPR Koff +/-

BINDER	binding result
antibody 198 (antibody, V domains shown, also called S198) VH: DVQLVESGGGVVRPGESLRLSCAASGFSFSSHAMNWVRQAPGEGLEWVSRINSGGGGTDYAESVKGRFTISRDNSENTLYLQMNSLRAEDTAVYYCAKQYDWNGFFDYWGLGALVTVSS VL: ETVLTQSPATLSVSPGERATLSCRASQTVGSKLAWHQQKPGQAPRLLIYDATNRATGIPDRFSGSGSGTDFTLTISSLQTEDSAVYYCQQYYYWPPYRFGGGTKVEIK	no binding
antibody 118 (antibody, V domains shown, also called S118) VH: VQLVESGGGVVRPGESLRLSCAASGFSFSSYAMNWVRQAPGEGLEWVSRINSGGGGTDYAESVKGRFTISRDNSENTLYLQMNSLRAEDTAVYYCAKQYDWNGFFDYWGLGALVTVSS VL: ETVLTQSPATLSVSPGERATLSCRASQTVGSKLAWHQQKPGQAPRLLIYDASRRATGIPDRFSGSGSGTDFTLTISSLQTEDSAVYYCQQYYYWPPYRFGGGTKVEIK	no binding
antibody 115 (antibody, V domains shown, also called S115) VH: DVQLVESGGGVVRPGESLRLSCAASGFSFSSYAMNWVRQAPGEGLEWVSRINSGGGGTDYAESVKGRFTISRDNSENTLYLQMNSLRAEDTAVYYCAKQYDWNSFFDYWGLGALVTVSS VL: ETVLTQSPATLSVSPGERATLSCRASQTVGSKLAWHQQKPGQAPRLLIYDATNRATGISDRFSGSGSGTDFTLTISSLQTEDSAVYYCQQYYYWPPYRFGGGTKVEIK	no binding
